targetEntity: Dual specificity protein kinase CLK4 (Homo sapiens)
testDetails: qHTS Assay for Inhibitors of CDC-like Kinase 4 (ADP-FP Assay) (AID 1795); further: nearly all actives have a fitted effect of over 60% in size
cond: Transcreener ADP fluorescence polarization; series mostly up to 50 µM
Experimental: NIH Molecular Libraries Probe Production Centers Network [MLPCN] NIH Chemical Genomics Center [NCGC] MLPCN Grant: 1R03MH084827-01 Assay Submitter (PI): Tom Misteli NCGC Assay Overview: Clk4 (Invitrogen cat # PV3839) was assayed using ATP and the RS repeat peptide (AnaSpec cat # 61722) as substrates using Transcreener (trade mark), a competitive fluorescence polarization (FP) assay. […] The amount of ADP produced can then be calculated using a calibration curve. […]
Results filed as inconclusive are left out. Active and inactive are the calls of the source. The call rests on the fitted dose curve; in most records, active means well fitted inhibition curve with a large enough effect; inconclusive means small, poorly fitted or top-dose-only effect; inactive means flat fitted curve, though single readings scatter.
# output must be one of active, inactive

Worked set:
# smilesEntry, group
data = [
    ("COc1ccc(-n2c(=O)c(-c3cn(C)c4ccccc34)nc3cnc(N4CCNCC4)nc32)cc1", "inactive"),
    ("COCCn1c(=O)c(-c2cccs2)nc2cnc(N3CCOCC3)nc21", "inactive"),
    ("N#Cc1ccccc1-c1ccc2ncnc(NC3CC3)c2c1", "active"),
    ("O=c1c(-c2cccs2)nc2cnc(Nc3ccccc3)nc2n1C[C@H]1CCCO1", "inactive"),
    ("COc1cccc(-c2nccc(NCc3ccc(OC)cc3OC)n2)c1", "inactive"),
]

// query How did this test come out for O=c1c(-c2ccccc2)nc2cnc(N3CCOCC3)nc2n1Cc1ccc(F)cc1 ?
// result inactive

// query How did this test come out for Cc1noc(C)c1-c1ccc2ncnc(Nc3ccccc3)c2c1 ?
// result active

// query How did this test come out for COc1ccc2[nH]cc(CCNc3ncnc4ccc(-c5c(C)noc5C)cc34)c2c1 ?
// result active

// query How did this test come out for Cc1cccc(CNc2ccnc(-c3ccccc3C(F)(F)F)n2)c1 ?
// result inactive

// query How did this test come out for COc1cccc(-c2ccc3ncnc(NCCNC(C)=O)c3c2)c1 ?
// result active

// query How did this test come out for CN(C)c1ncc2nc(-c3cccs3)c(=O)n(Cc3cccs3)c2n1 ?
// result inactive
